Each recorded value in this set is attributed to the RNAGym collection of RNA variant scans (doi:10.1126/science.aae0568).

Documented yeast fitness across a set of variants
B1: tRNA (parent)
chain: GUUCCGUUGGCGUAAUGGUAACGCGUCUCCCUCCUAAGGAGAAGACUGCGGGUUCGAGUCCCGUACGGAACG

variants of: B1; assay: yeast fitness relative to wild type (ratio to wild type); higher = fitter; tRNA-Arg(CCU), competitive growth, 37 C, YPD
This sample holds only a part of the variants without activity.
RESULT_TYPE: yeast fitness

| INPUT_SEQUENCE | RESULT_TYPE | OBSERVED_VALUE |
| --- | --- | --- |
| GUUCCGUUGGCGUAAUGGUAACGCGUCACCCUCCUAAGGAGAAGACUGCGGGUUCCAGUCCCGUACGGAACG [U28A G56C] | yeast fitness | ≤ 0.5 |
| GUUCCGUUGGCGUAAUGCUAACGAGUCUCCCUCCUAAGGAGAAGACUGCGGGUUCGCGUCCCGUAUGGCACG [G18C C24A A57C C66U A69C] | yeast fitness | ≤ 0.5 |
| GUUCCGUUGGUGUAAUGGUUACGUGUCUACCUCCUAAGGAGAAGACUGCGGGUUCGAGUCCCGUACGGAACG [C11U A20U C24U C29A] | yeast fitness | ≤ 0.5 |
| GUUCCGUUGGCGUAAUGGUAACGCCUCUCCCUCCUAAAGAGAAGACUGCGGGUUCGAGUCCCGUACGGAACG [G25C G38A] | yeast fitness | 0.951 |
| GUUCCGUUGGCGUAAUGGUAACGCGUCUCCCUCCUAAGGGGAAGACUGCGGGUUAGAGUCUCGUACGGAACG [A40G C55A C61U] | yeast fitness | ≤ 0.5 |
| GUUCCGUUGGCGUAAUGGUAACGCGUCUCCCUCCUAAGGAGAAGACUGCGGGUUCGAGUCUCGUACGGAUCG [C61U A70U] | yeast fitness | 1.04 |
| GUUCCGUUGGCGUGAUGGUAACGCGUCUCCCUCCUAAGGAGAAGACUGCGGGUUCGAGUCCCGUACUGAACG [A14G G67U] | yeast fitness | 0.776 |
| GUUCCGUUGGCGUUAUGGUAACGCGUCUCCCUCCUAAGGAGAGGACUGCGGGUUCGAGUCCCCUACGGAACG [A14U A43G G63C] | yeast fitness | ≤ 0.5 |
| GUUCCGUUGGCGUAAUGGUAACGCGUGUCCCUCCUAAGGAGAAGACUGCGGGUUCGAGUCCCGUUGGGAACG [C27G A65U C66G] | yeast fitness | ≤ 0.5 |
| GUUCAGUUGGCGUAAUGGUAACGCGUCUCCCUCCUAAGGAGAAGACUCCGCGAUCGAGUCCCGUACGGAACG [C5A G48C G51C U53A] | yeast fitness | ≤ 0.5 |
| GUUCCGUCGGCGUAAUGGUAACGCGGCUCCCUCCUAAGGAGCAGACUGCGGGUUCGAGUCCCGUACGGAACG [U8C U26G A42C] | yeast fitness | 0.703 |
| GUUCCGUUGGCGUAAUGGUAACGCGUCACCCUCGUAAGGAGAAGACUGCGGGUUCGAGUCCCGUACGGAACG [U28A C34G] | yeast fitness | 0.707 |
| GUACCGUUGGCAUAAUGGAAACGCGUCUCCCUCCUAAGGAGAAGACUGCGGGUUCGAGUACCGUACGGACCG [U3A G12A U19A C60A A70C] | yeast fitness | 0.569 |
| GUUCCGUUGGCGUAAUGGCAACGCGUCUCCUUCUUAAGGAGAAGACUGCGGGUUCGCGUCCCGUACGGAACG [U19C C31U C34U A57C] | yeast fitness | ≤ 0.5 |
| GUUCCGUUGGCGUAAUGGUAACGCGUCUCCCUCCUAAGGAAAAGACUGCAGGUUCGAGUUCCGUAGGGAACG [G41A G50A C60U C66G] | yeast fitness | ≤ 0.5 |
| GGUCCGUUGGGGUAAUGGUAACGCGUCUCCCUCCUAACGAGAAAACUGCGGGUUCGAGUCCCGUACGGAACG [U2G C11G G38C G44A] | yeast fitness | ≤ 0.5 |
| GUUCCGUUGGCGCAAUGGUAACGGGUCUCACUCCUAAGGAGAAGACCGCGGGUUCGAGUCCCGUACGGAACG [U13C C24G C30A U47C] | yeast fitness | ≤ 0.5 |
| GUUCCGUUGGCGUAAUGGUAACGCGUCUGCCUCCUAAGGAGAAGACUGCGGGUUCGAGUCCCGUACGGGACG [C29G A69G] | yeast fitness | ≤ 0.5 |
| GUUCCGUCGGCGUCAUGGUAACGCGUGUCCCUCCUAAGGAGAAGAGUGCGGGUUCGAGUCCCGUGCGGAACG [U8C A14C C27G C46G A65G] | yeast fitness | ≤ 0.5 |
| GUUCCGUUGGCGUAAUGGUAACGCGUUUCCCUCCUAAGGAGAAGACUGCGGGUUCGAGUCCCGUUCGGAACG [C27U A65U] | yeast fitness | 0.99 |
| GUUCCGUUGGCGUAAUGGUAACGCGUAUCCCUCCUAAGGAGAAGACUGCGGGUUCGAGUCGCGUACAGAACG [C27A C61G G67A] | yeast fitness | ≤ 0.5 |
| GUUUCGUUGGCCUAAUGGUACCGCGUCUGCCUCCUGAGGAGAAGAUUGCGGGUUCGAAUCCCGUACGGAACG [C4U G12C A21C C29G A36G C46U G58A] | yeast fitness | ≤ 0.5 |
